Assay System: WT HIV-1 RT (Human immunodeficiency virus type 1 group M subtype B, UniProt P03366, Q857C)
Construct: HIV-1 RT p66 and p51 subunits were expressed and purified as described previously
Procedure Summary: Pre-steady-state single-turnover kinetics of nucleotide incorporation by WT HIV-1 RT
Details: WT HIV-1 RT, 18/26-mer dsDNA, 37 °C; read-out: Kd (apparent equilibrium dissociation constant)
Endpoint Label: Kd (nM)
Give the number; nM is assumed, so skip it.

Nc1ccn([C@H]2CS[C@@H](COP(=O)(O)OP(=O)(O)OP(=O)(O)O)O2)c(=O)n1 [(+)-3TC-TP]: 202

Provide only the value of recorded Kd for Nc1ccn([C@H]2C[C@H](O)[C@@H](COP(=O)(O)OP(=O)(O)OP(=O)(O)O)O2)c(=O)n1 [dCTP, deoxycytidine triphosphate] 6300

Provide only the value of recorded Kd for Nc1nc(=O)n([C@@H]2CS[C@H](COP(=O)(O)OP(=O)(O)OP(=O)(O)O)O2)cc1F [(−)-FTC-TP] 100

Provide only the value of recorded Kd for Nc1nc(=O)n([C@H]2CS[C@@H](COP(=O)(O)OP(=O)(O)OP(=O)(O)O)O2)cc1F [(+)-FTC-TP] 190

Provide only the value of recorded Kd for Nc1ccn([C@@H]2CS[C@H](COP(=O)(O)OP(=O)(O)OP(=O)(O)O)O2)c(=O)n1 [(−)-3TC-TP] 250
